The reported measurements were obtained from ChEMBL document CHEMBL1201862.

Test system: 786-0
Assay: NCI tumour cell line growth inhibition, 48 h
The source made the active and inactive calls. No stated cut-off is given here; in the data, active = GI50 up to about 1.1 µM and inactive = higher.
Measure: GI50

Before answering, review these 2 worked examples.
{"Compound": "O=C1c2ccccc2C(=O)c2cc(/N=N/c3c(O)ccc4ccccc34)ccc21", "GI50": "> 100 µM (inactive)"}
{"Compound": "Nc1nc(N)c2ncn(-c3ccccc3)c2n1", "GI50": "> 100 µM (inactive)"}

List GI50 for every entry below, keeping the order given.
1. Cc1ccc2c(O)cc(-c3ccccc3)nc2n1
2. CC(=O)OCCCCn1cnc2c(Cl)nc(Nc3ccccc3)nc21
3. O=C(NO)c1cccc(OCc2ccc(Br)cc2)c1
4. COc1cc(C2c3cc4c(cc3C(NCC(O)CO)C3COC(=O)[C@H]23)OCO4)cc(OC)c1OC (stereo partly specified)

Solution:
1. 0.222 µM (active)
2. > 100 µM (inactive)
3. 2.92 µM (inactive)
4. 0.578 µM (active)

List GI50 for every entry below, keeping the order given.
1. Cc1cccc(N/C(Sc2ccccc2)=C(/C(Cl)=C(Cl)Cl)[N+](=O)[O-])c1
2. Nc1nc2cc(Cl)ccc2n1N
3. O=C1/C(=C/c2cccs2)N=C(c2ccccc2)N1C1Nc2cc3c(cc2S1)NC(N1C(=O)/C(=C/c2cccs2)N=C1c1ccccc1)S3 (stereo unspecified)
4. N#Cc1ccc(-c2nc3c(N)nc(-c4ccccc4)nc3o2)cc1
5. CCc1nnc(CC)n1NCCCC(=O)O

Solution:
1. 16.9 µM (inactive)
2. > 100 µM (inactive)
3. 16.4 µM (inactive)
4. > 100 µM (inactive)
5. > 100 µM (inactive)
